Some molecules, each annotated with its measured TGI.
- Test system: SK-OV-3 ovarian
- test protocol: NCI tumour cell line growth inhibition, 48 h

Some solved entries appear below for comparison.
INSERT INTO measurements (molecule, readout_value) VALUES
  ('N#CC(C#N)=C1c2ccccc2C(=NN)c2ccccc21', '> 100 µM'),
  ('O=C(Nc1ccc([As](=O)(O)O)cc1)Nc1cccc(Cl)c1Cl', '> 100 µM'),
  ('O=C(O)c1n[nH][nH]c1=S', '> 100 µM'),
  ('CCN(Cc1ccc(Cl)cc1)c1ccc(CO)c(Cl)c1', '12.9 µM'),
  ('CCCc1cc(=O)oc2c3c(c4c(c12)OC(C)(C)CC4)O[C@@H](C)[C@H](C)[C@H]3O', '32.6 µM'),
  ('CCCCCCCCCCCc1nnc(N)o1', '> 100 µM');

Request: What value of measured TGI is listed for Fc1ccc(Oc2nc3ccc(C(F)(F)F)cc3nc2-c2ccccc2)cc1 ?
Result: > 100 µM

Request: What value of measured TGI is listed for C=C1C(=O)O[C@H]2[C@H]1CC/C(CNC(=O)/C=C/c1cc(OC)c(OC)c(OC)c1)=C\CC[C@@]1(C)O[C@@H]21 ?
Result: 33.3 µM

Request: What value of measured TGI is listed for O=C(CCCCCCNC(=O)c1cnc(N(c2ccccc2)c2ccccc2)nc1)NO ?
Result: 23.8 µM
